Quick reference for melting point among some compounds
Structures can show the parent of a compound that is named as a salt.

Take a look at these entries with their results.
INSERT INTO assay_data (compound, measurementkind, assayresult) VALUES
  ('CN(C)c1cccc(-c2cc(-c3ccccc3O)nc(NC(=O)c3cccs3)c2C#N)c1', 'melting point', '230 to 231 °C'),
  ('CN(C)c1ccc(-c2cc(-c3ccccc3O)nc(NC(=O)c3cccs3)c2C#N)cc1C(=O)NCCN (as salt: hydrochloride) [Example 248, dihydrochloride]', 'melting point', '210 to 216 °C');

Tell me melting point reported for CNCC(=O)Nc1cccc(-c2cc(-c3ccccc3O)nc(NC(=O)c3cccs3)c2C#N)c1.Cl
248 to 254 °C

Write down melting point measured for item Cc1ccc(-c2cc(-c3cccc(NC(=O)CCN)c3)c(C#N)c(NC(=O)c3cccs3)n2)c(O)c1.Cl
204 to 210 °C

Specify melting point for C[C@H](N)CC(=O)Nc1cccc(-c2cc(-c3ccc(Cl)cc3O)nc(NC(=O)c3nccs3)c2C#N)c1.Cl and stop.
218 to 221 °C

###

Target: human metastin receptor hOT7T175 (Homo sapiens, UniProt Q969F8, L364H)
Construct: encoding the entire length of human metastin receptor hOT7T175; expressed in transfected cells; host or cells: CHO/dhFr- cells (ATCC #CRL-9096) stably transfected with pAKKO-hOT7T175; clone h175-16 was used as whole cells for FLIPR
Sequence (Q969F8 whole entry L364H): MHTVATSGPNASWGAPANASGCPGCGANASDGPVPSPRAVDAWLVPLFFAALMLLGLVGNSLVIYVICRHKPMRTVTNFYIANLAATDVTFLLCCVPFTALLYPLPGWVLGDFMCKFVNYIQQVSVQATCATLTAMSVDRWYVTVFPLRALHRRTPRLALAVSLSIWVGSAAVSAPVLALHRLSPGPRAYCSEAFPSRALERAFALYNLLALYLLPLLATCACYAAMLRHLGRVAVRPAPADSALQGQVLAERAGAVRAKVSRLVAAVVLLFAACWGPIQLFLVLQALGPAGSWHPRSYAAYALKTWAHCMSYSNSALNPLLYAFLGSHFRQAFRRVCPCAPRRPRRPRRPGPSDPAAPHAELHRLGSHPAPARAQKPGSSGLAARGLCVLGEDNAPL
Assay: binding inhibiting activity: 125I-metastin (40-54) binding to cell membrane fraction of h175 KB34 cells
Conditions: room temperature 60 minutes, read-out: binding inhibiting activity, represented by the IC50 value
pIC50: −log10 of the molar value. Structures can show the parent of a compound that is named as a salt.
Each entry below carries its reported pIC50.

INSERT INTO measurements (compound, measurementkind, assayresult) VALUES
  ('Cl.N#Cc1c(-c2cccc(NC(=O)[C@H]3CCCN3)c2)cc(-c2ccc(F)cc2O)nc1NC(=O)c1ccco1 [Example 291, hydrochloride]', 'pIC50', '≥ 5.00'),
  ('CC(N)CC(=O)Nc1cccc(-c2cc(-c3ccc(Cl)cc3O)nc(NC(=O)c3cccn3C)c2C#N)c1 (stereo not drawn) [Example 274, hydrochloride]', 'pIC50', '≥ 5.00');

Send back human metastin receptor hOT7T175 (Homo sapiens, UniProt Q969F8, L364H) pIC50 of Cl.N#Cc1c(-c2cccc(NC(=O)CCN)c2)cc(-c2ccc(Br)cc2O)nc1NC(=O)c1cccs1 [Example 61, hydrochloride] only.
≥ 5.00

###

Below, each of the molecules is paired with its reported melting point value.
Counter-ions that a name gives are not always drawn.

INSERT INTO assay_data (molecule, assayresult) VALUES
  ('Cl.N#Cc1c(-c2cccc(NC(=O)[C@H]3CCC[C@H]3N)c2)cc(-c2ccc(F)cc2O)nc1NC(=O)c1ccco1 (racemic)', '224 to 226 °C'),
  ('CN(C)Cc1cccc(-c2cc(-c3ccccc3O)nc(NC(=O)c3cccs3)c2C#N)c1', '225 to 226 °C'),
  ('Cl.N#Cc1c(-c2cccc(NC(=O)[C@H]3CCCN3)c2)cc(-c2ccc(F)cc2O)nc1NC(=O)c1ccno1', '≥ 250 °C (dec.)');

Name the recorded melting point of the item Cl.N#Cc1c(-c2cccc(N3CCOCC3)c2)cc(-c2ccc(F)cc2O)nc1NC(=O)c1ccco1 in your answer.
244 to 246 °C

Fill in melting point for record Cl.N#Cc1c(-c2ccc(C(=O)NCCN)cc2)cc(-c2ccccc2O)nc1NC(=O)c1cccs1
202 to 208 °C

Please report melting point for the following molecule: COc1ccccc1C(=O)Nc1nc(-c2ccc(F)cc2O)cc(-c2cccc(C(=O)NCCN)c2)c1C#N.Cl
227 to 229 °C

Item CC(C)(CN)CNC(=O)c1cccc(-c2cc(-c3ccc(F)cc3O)nc(NC(=O)c3ccco3)c2C#N)c1.Cl : provide melting point
256 to 257 °C

Look up melting point of Cl.NCCC(=O)Nc1cccc(-c2cc(-c3ccccc3O)nc(NC(=O)c3ccccc3)c2C(=O)O)c1 and report it.
250 to 253 °C

Input Cl.N#Cc1c(-c2cccc(NC(=O)CCN)c2)cc(-c2ccc(C(F)(F)F)cc2O)nc1NC(=O)c1cccs1 , output reported melting point.
209 to 216 °C

Return melting point for the following molecule: Cl.N#Cc1c(-c2cccc(NC(=O)C3(N)CC3)c2)cc(-c2ccc(Cl)cc2O)nc1NC(=O)c1ccco1
190 to 196 °C

Answer with reported melting point of COc1ccccc1C(=O)Nc1nc(-c2ccc(Cl)cc2O)cc(-c2cccc(C(=O)NCC3CCCCN3)c2)c1C#N.Cl (stereo not drawn)
210 to 217 °C

Respond only with melting point recorded for N#Cc1c(-c2cccc(NC(=O)CCN)c2)cc(-c2ccc(Cl)cc2O)nc1NC(=O)c1cccs1 (as salt: trifluoroacetate)
206 to 209 °C

Determine its reported melting point: Cl.N#Cc1c(-c2cccc(NC(=O)CCN)c2)cc(-c2ccc(Cl)cc2O)nc1NC(=O)c1ccccc1OC(F)(F)F
218 to 223 °C

Please give measured melting point of the following entry: Cl.N#Cc1c(-c2cccc(C(=O)NCCCn3ccnc3)c2)cc(-c2ccc(Cl)cc2O)nc1NC(=O)c1ccco1
182 to 184 °C

Give recorded melting point. Cl.N#Cc1c(-c2cccc(N3CCCCC3)c2)cc(-c2ccc(F)cc2O)nc1NC(=O)c1ccco1
240 to 242 °C

###

Biological target: human metastin receptor hOT7T175 (Homo sapiens, UniProt Q969F8, L364H)
Construct: encoding the entire length of human metastin receptor hOT7T175; expressed in transfected cells; host or cells: CHO/dhFr- cells (ATCC #CRL-9096) stably transfected with pAKKO-hOT7T175; clone h175-16 was used as whole cells for FLIPR
Experiment: binding inhibiting activity: 125I-metastin (40-54) binding to cell membrane fraction of h175 KB34 cells
Details: room temperature 60 minutes, read-out: binding inhibiting activity, represented by the IC50 value
Structures can show the parent of a compound that is named as a salt.
Measured IC50, listed per entry for reference.

INSERT INTO results (compound, assayresult) VALUES
  ('CCN(CC)CCN(CC)c1cccc(-c2cc(-c3ccc(F)cc3O)nc(NC(=O)c3ccco3)c2C#N)c1 [Example 304, dihydrochloride]', '≤ 10 µM'),
  ('CC(CC(=O)Nc1cccc(-c2cc(-c3ccc(F)cc3O)nc(NC(=O)c3ccco3)c2C#N)c1)N(C)C.Cl (stereo not drawn) [Example 338, hydrochloride]', '≤ 10 µM');

We next turn to a different compound, shown below.
Output measured IC50 for this item: Cl.N#Cc1c(-c2cccc(NC(=O)[C@@H]3CCCC[C@@H]3N)c2)cc(-c2ccc(F)cc2O)nc1NC(=O)c1ccco1 [Example 284, hydrochloride]
≤ 10 µM

###

Structures can show the parent of a compound that is named as a salt.
melting point reference

INSERT INTO assay_data (compound, measurementkind, assayresult) VALUES
  ('Cl.N#Cc1c(-c2cccc(NC(=O)[C@H]3CCCN3)c2)cc(-c2ccccc2O)nc1NC(=O)c1cccs1', 'melting point', '213 to 218 °C');

Give the value of melting point reported for the following: COc1c(C(=O)NCCN)cccc1-c1cc(-c2ccccc2O)nc(NC(=O)c2ccco2)c1C#N.Cl
182 to 188 °C

Supply measured melting point of CCN1CCN(Cc2cccc(-c3cc(-c4ccc(F)cc4O)nc(NC(=O)c4ccco4)c3C#N)c2)CC1 (as salt: hydrochloride) [Example 334, dihydrochloride] in your reply.
215 to 222 °C

Give the measured melting point for Cl.N#Cc1c(-c2cccc(C(=O)N3CCC(N)CC3)c2)cc(-c2ccccc2O)nc1NC(=O)c1cccs1
215 to 218 °C

Give the measured melting point for CN(C(=O)CN)c1cccc(-c2cc(-c3ccccc3O)nc(NC(=O)c3cccs3)c2C#N)c1 (as salt: hydrochloride) [Example 41, dihydrochloride]
198 to 205 °C

Provide melting point value for the following compound: Cl.N#Cc1c(-c2cccc(C(=O)NCCCN)c2)cc(-c2ccccc2O)nc1NC(=O)c1cccs1
192 to 198 °C

Give melting point for CC(C)NC(C)CC(=O)Nc1cccc(-c2cc(-c3ccc(F)cc3O)nc(NC(=O)c3ccco3)c2C#N)c1.Cl (stereo not drawn)
197 to 199 °C

Respond only with melting point recorded for Cl.N#Cc1c(-c2cccc(NC(=O)[C@@H]3CCCC[C@@H]3N)c2)cc(-c2ccc(F)cc2O)nc1NC(=O)c1ccco1 (racemic) [Example 267]
224 to 225 °C

Name the recorded melting point of the item CC(=O)NCCNc1cccc(-c2cc(-c3ccc(F)cc3O)nc(NC(=O)c3ccco3)c2C#N)c1 in your answer.
158 to 160 °C
